Data provenance is the supplement of paper PMC11417369.

# Tested on: PfSIP2 AP2 domain 1 (GST-tagged)
# protocol_text: gcPBM binding intensity (ln(normalized median fluorescence intensity)); higher = stronger DNA binding
Over roughly 25,000 sequences, “ln(normalized median fluorescence intensity)” has its median near 7.1; the highest 2% begin near 10. What follows is part of a selection rich in the highest values, with near analogues and random picks from the rest.
measurement_kind: gcPBM binding intensity (ln)

# entry_sequence, assay_system, measurement_kind, result
measured = [
    ("TTTATGAAACAGTGCACACATAAAAATAAATACATA [CACACA_site5631]", "PfSIP2 AP2 domain 1 (GST-tagged)", "gcPBM binding intensity (ln)", 11.2),
    ("ATATTATATTGGATGTTGCACTTAACAAAAGGATAT [GTGCAC_site9478]", "PfSIP2 AP2 domain 1 (GST-tagged)", "gcPBM binding intensity (ln)", 8.76),
    ("TTTTTAATTTTATATACACACATAAAATATATGAAG [CACACA_site3145]", "PfSIP2 AP2 domain 1 (GST-tagged)", "gcPBM binding intensity (ln)", 7.01),
    ("ACCTATATAAGTTATACACACAAATATAGATATATA [CACACA_site7356]", "PfSIP2 AP2 domain 1 (GST-tagged)", "gcPBM binding intensity (ln)", 7.06),
    ("AAAAAAAATATGAAAACACACATATATAAATAAATA [CACACA_site113]", "PfSIP2 AP2 domain 1 (GST-tagged)", "gcPBM binding intensity (ln)", 6.89),
    ("AAGATAAATTATTATAAATCAATTGTGCCAACAATA [CACACA_negctrl_site144]", "PfSIP2 AP2 domain 1 (GST-tagged)", "gcPBM binding intensity (ln)", 6.69),
    ("CTTTTATGAAACAGTGCACACATAAAAATATATACA [CACACA_site8981]", "PfSIP2 AP2 domain 1 (GST-tagged)", "gcPBM binding intensity (ln)", 11.3),
    ("TTAACAAAATTTCCGTGTACGTAAATAAGAACATAG [XGTACX_site7200]", "PfSIP2 AP2 domain 1 (GST-tagged)", "gcPBM binding intensity (ln)", 7.25),
    ("TTTATGAAACAGTGCACACATAAAAATATATACATA [CACACA_site2992]", "PfSIP2 AP2 domain 1 (GST-tagged)", "gcPBM binding intensity (ln)", 11),
]
